READOUT_TYPE: IC50
Please don't drop the unit; write it after the number.

Q) Reported IC50 for CYP450 3A4 (Homo sapiens), given `Cn1cc(-c2ccc(-c3cncc(Cl)c3N3CCC4(CCNC4=O)CC3)cc2)cn1` ?
A) 11.4 µM

* * *

# PROTOCOL_NOTES: Clint determination
# Assay type: in vitro ADME
# PROTOCOL_CONDITIONS: human, microsomes, pH 7.4, human microsomes, read-out: Clint (μL/min/mg) Human
READOUT_TYPE: microsomal CLint at 1 μM (µL/min/mg)
Value expressed in µL/min/mg; do not type the unit.

Q) Would you kindly share the measured microsomal CLint at 1 μM for `O=C1CC2(CCN(c3c(Cl)cncc3-c3ccc(N4CCOCC4)cc3)CC2)C(=O)N1` ?
A) 67

Q) Reported microsomal CLint at 1 μM, compound `O=C1NCCC12CCN(c1c(Cl)cncc1-c1ccc(-c3ccncc3)cc1)CC2` : ____
A) 100

Q) Form field: reported microsomal CLint at 1 μM of `O=C1NCCC12CCN(c1c(Cl)cncc1-c1ccc(N3CCOCC3)cc1)CC2`
A) 115

Q) For O=C1NCCC12CCN(c1c(Cl)cncc1-c1ccc(N3CCOCC3)cc1)C2 (stereo not shown) , what is its reported microsomal CLint at 1 μM?
A) 335

* * *

READOUT_TYPE: IC50

Q) Could you share what IC50 was measured for `Cn1cc(-c2ccc(-c3cncc(Cl)c3N3CCC4(CCNC4=O)CC3)cc2)cn1` , tested on hERG (Homo sapiens, UniProt Q12809)?
A) > 10 µM

* * *

System: CYP450 2D6 (Homo sapiens, UniProt P10635) | Read-out: IC50
Sequence (P10635 whole entry): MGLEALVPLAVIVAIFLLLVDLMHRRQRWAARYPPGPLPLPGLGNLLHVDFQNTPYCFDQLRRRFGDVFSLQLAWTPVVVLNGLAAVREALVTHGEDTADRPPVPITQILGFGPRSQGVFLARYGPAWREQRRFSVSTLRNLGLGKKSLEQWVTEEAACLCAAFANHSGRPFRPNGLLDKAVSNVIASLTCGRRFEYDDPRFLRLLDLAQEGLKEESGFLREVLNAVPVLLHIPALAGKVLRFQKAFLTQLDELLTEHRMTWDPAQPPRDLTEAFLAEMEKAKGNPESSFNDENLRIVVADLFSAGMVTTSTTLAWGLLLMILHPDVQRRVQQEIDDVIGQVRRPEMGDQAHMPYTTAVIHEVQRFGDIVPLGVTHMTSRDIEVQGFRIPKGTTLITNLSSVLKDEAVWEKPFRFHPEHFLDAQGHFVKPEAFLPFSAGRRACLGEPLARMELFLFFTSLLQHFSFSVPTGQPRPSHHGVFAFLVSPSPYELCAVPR

Q) I have this compound here, `NC(=O)C1CCN(c2c(Cl)cncc2Cl)CC1` , and I need its recorded IC50.
A) > 20 µM

Q) Using the record for `Cn1cc(-c2ccc(-c3cncc(Cl)c3N3CCC4(CCNC4=O)CC3)cc2)cn1` , report its IC50.
A) > 20 µM

* * *

# TARGET_UNDER_TEST: CYP450 1A2 (Homo sapiens, UniProt P05177)
# Sequence (P05177 1-516): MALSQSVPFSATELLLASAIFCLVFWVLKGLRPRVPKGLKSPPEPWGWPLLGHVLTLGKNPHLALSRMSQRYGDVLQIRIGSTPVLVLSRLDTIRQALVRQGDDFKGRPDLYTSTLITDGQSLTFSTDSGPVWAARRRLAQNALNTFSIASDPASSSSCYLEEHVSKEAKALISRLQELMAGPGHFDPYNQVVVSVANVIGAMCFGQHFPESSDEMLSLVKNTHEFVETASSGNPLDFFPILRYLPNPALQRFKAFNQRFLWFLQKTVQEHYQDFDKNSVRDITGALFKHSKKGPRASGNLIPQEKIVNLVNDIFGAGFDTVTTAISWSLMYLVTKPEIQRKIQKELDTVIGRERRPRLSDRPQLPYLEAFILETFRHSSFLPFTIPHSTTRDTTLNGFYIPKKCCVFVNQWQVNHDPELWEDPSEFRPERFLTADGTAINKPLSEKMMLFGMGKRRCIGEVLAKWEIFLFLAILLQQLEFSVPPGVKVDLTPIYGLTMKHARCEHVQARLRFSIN
Could you please report measured IC50 for the items listed next?

Q) Can you look up the measured IC50 of NC(=O)C1CCN(c2c(Cl)cncc2Cl)CC1 [Compound 9] for me?
A) > 20 µM

Q) # lookup: IC50 of Cn1cc(-c2ccc(-c3cncc(Cl)c3N3CCC4(CCNC4=O)CC3)cc2)cn1 [Compound 74]
A) > 20 µM

* * *

Record form. Attribute: Papp at 2 h, 1 μM. Fill in for each entry.
# PROTOCOL_NOTES: Caco-2 Papp determination
# Assay type: in vitro ADME, human
# PROTOCOL_CONDITIONS: human, Caco-2; 1 μM, pH 7.4
Provide the measurement as a number trailed by its unit.

Q) Request the reported Papp at 2 h, 1 μM associated with `Cn1cc(-c2ccc(-c3cncc(Cl)c3N3CCC4(CCNC4=O)CC3)cc2)cn1`
A) 24 ×10⁻⁶ cm/s

Q) I'd like to know its Papp at 2 h, 1 μM. The molecule in question is `NC(=O)C1CCN(c2c(Cl)cncc2Cl)CC1`
A) 36 ×10⁻⁶ cm/s

Q) Fill in the blank: the reported Papp at 2 h, 1 μM of `O=C1NCCC12CCN(c1c(Cl)cncc1-c1ccc(N3CCOCC3)cc1)CC2` is ____.
A) 37 ×10⁻⁶ cm/s

* * *

# TARGET_UNDER_TEST: UniProt:P06239
# Sequence (P06239 whole entry): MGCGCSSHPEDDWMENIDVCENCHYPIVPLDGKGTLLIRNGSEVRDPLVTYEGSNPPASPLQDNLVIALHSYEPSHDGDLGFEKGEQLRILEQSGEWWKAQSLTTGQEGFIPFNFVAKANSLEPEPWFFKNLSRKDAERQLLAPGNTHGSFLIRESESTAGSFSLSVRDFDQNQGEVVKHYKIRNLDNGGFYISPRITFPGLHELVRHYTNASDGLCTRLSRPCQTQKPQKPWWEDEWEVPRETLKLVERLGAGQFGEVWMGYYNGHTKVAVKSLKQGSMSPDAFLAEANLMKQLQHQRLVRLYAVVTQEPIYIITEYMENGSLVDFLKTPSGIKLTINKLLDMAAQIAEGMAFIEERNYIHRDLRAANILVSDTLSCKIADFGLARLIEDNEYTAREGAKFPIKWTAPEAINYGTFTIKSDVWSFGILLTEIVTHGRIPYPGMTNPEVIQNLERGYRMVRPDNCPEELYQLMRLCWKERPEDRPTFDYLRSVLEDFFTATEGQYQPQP
READOUT_TYPE: IC50

Q) # query: IC50 of entry Cn1cc(-c2ccc(-c3cncc(Cl)c3N3CCC4(CCNC4=O)CC3)cc2)cn1 [Compound 74]
A) > 10 µM

* * *

READOUT_TYPE: pIC50
# pIC50: negative log10 of molar concentration; output just the value

Q) Lab note: need pIC50 with UniProt:P33261 for entry `Cn1cc(-c2ccc(-c3cncc(Cl)c3N3CCC4(CCNC4=O)CC3)cc2)cn1` , please look it up.
Sequence (P33261 whole entry): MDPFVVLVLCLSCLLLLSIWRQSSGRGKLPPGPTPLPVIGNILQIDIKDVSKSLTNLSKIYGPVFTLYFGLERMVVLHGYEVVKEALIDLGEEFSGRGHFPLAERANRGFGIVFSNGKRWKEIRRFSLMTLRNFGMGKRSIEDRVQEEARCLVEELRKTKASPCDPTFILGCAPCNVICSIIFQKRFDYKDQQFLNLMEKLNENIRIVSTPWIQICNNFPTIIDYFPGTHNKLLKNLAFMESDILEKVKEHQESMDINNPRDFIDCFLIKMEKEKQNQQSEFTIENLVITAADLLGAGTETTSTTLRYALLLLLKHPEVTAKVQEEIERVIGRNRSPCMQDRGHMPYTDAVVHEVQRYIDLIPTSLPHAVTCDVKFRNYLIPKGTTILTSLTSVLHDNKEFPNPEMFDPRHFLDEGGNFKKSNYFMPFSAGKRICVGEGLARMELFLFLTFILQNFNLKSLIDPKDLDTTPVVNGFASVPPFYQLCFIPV
A) 5.10

* * *

# TARGET_UNDER_TEST: UniProt P20813
# Sequence (P20813 whole entry): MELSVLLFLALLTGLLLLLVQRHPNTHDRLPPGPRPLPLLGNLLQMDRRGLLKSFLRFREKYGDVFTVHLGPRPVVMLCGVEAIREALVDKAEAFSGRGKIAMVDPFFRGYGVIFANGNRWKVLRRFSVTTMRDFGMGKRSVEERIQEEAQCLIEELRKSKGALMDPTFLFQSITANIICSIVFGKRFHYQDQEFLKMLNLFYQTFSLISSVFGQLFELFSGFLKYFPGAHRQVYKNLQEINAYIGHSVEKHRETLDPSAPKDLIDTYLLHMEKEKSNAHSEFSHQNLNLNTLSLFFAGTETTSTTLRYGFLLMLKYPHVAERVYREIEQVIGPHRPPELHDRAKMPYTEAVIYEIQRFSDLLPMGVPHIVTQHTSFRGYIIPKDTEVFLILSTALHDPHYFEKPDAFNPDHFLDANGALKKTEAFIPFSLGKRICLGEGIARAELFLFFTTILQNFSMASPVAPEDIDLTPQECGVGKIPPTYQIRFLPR
# PROTOCOL_NOTES: CYP450 inhibition
pIC50: −log10 of the molar value.
READOUT_TYPE: pIC50

Q) I would be grateful if you could share the reported pIC50 for NC(=O)C1CCN(c2c(Cl)cncc2Cl)CC1 [Compound 9] .
A) < 4.70

Q) Name the recorded pIC50 for Cn1cc(-c2ccc(-c3cncc(Cl)c3N3CCC4(CCNC4=O)CC3)cc2)cn1 [Compound 74] .
A) < 4.70

Where do the numbers come from? From paper PMC4767141.
